- target: DNA topoisomerase 2-beta (Homo sapiens)
- Sequence (Q02880 whole entry): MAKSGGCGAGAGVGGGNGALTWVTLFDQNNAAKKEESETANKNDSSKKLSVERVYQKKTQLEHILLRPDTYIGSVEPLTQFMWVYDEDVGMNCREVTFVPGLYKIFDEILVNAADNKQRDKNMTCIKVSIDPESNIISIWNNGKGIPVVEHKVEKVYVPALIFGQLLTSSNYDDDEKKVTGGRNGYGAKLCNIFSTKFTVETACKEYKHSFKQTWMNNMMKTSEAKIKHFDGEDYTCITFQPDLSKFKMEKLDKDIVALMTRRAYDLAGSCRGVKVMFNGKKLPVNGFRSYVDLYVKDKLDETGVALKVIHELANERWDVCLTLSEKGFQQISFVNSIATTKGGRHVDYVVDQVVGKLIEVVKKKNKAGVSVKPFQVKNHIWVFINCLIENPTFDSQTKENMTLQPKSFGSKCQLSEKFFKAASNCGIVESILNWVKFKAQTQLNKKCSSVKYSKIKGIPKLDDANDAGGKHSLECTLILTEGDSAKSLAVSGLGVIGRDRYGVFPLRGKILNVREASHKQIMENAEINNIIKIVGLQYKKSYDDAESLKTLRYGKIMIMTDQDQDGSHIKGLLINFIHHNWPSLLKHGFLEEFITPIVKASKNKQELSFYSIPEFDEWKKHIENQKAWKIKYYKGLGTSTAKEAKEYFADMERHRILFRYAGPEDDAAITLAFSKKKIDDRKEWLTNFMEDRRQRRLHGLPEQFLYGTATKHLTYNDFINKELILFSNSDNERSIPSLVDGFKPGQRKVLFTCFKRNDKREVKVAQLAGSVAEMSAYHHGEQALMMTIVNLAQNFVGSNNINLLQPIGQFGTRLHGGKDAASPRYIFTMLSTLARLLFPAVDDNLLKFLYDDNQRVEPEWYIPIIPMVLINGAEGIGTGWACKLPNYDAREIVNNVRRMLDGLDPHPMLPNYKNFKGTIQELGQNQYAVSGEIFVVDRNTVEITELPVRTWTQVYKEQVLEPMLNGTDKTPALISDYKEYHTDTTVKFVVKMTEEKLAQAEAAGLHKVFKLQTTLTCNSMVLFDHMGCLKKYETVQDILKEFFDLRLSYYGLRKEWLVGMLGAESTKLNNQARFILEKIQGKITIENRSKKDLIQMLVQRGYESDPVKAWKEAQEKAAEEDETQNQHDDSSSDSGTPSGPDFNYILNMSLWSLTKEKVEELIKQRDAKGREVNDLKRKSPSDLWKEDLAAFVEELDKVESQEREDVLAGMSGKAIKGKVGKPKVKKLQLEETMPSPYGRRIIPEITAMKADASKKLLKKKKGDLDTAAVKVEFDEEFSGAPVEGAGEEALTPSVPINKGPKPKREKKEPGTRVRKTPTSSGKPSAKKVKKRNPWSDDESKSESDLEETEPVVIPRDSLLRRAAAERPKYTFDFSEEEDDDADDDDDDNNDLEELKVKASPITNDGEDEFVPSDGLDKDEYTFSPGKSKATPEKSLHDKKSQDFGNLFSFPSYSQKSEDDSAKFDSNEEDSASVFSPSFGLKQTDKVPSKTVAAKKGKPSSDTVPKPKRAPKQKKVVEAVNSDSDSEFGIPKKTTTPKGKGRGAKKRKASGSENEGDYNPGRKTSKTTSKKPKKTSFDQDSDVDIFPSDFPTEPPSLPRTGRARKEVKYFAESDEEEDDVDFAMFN
- test: Inhibition of human topoisomerase IIB by sandwich ELISA
Calls of active or inactive are those of the source. No cut-off for these calls is given here.

[
  {
    "smiles.entry": "O=C1c2c(Br)c(Br)c(Br)c(Br)c2C(=O)N1c1nnc[nH]1",
    "target": "DNA topoisomerase 2-beta (Homo sapiens)",
    "inhibition": "Active"
  },
  {
    "smiles.entry": "O=C1c2c(Br)c(Br)c(Br)c(Br)c2C(=O)N1c1nnn[nH]1",
    "target": "DNA topoisomerase 2-beta (Homo sapiens)",
    "inhibition": "Active"
  },
  {
    "smiles.entry": "CC(=O)n1c(-c2ccc(N3C(=O)c4c(Br)c(Br)c(Br)c(Br)c4C3=O)cc2)nc2ccccc21",
    "target": "DNA topoisomerase 2-beta (Homo sapiens)",
    "inhibition": "Active"
  }
]
